assay.details: Caco-2 membrane permeability, improved method as used in the following Examples (96-well, 20 to 24 h preincubation)
Assay type: in vitro ADME
stated.conditions: human, Caco-2, Caco-2
Positions of bridges follow the written chain, without caps; N, C: chain ends. Non-standard residues stand in square brackets, D forms with d. Residues, ends and D or L forms follow the SMILES beside them. *: point of attachment. NMeF = CN[C@@H](Cc1ccccc1)C(=O)O; hPhe = N[C@@H](CCc1ccccc1)C(=O)O; NMeL = CN[C@@H](CC(C)C)C(=O)O; NMeAbu = CC[C@H](NC)C(=O)O; NMeS = CN[C@@H](CO)C(=O)O; NMeA = CN[C@@H](C)C(=O)O; Piperidide = C1CCN(*)CC1; Isopentyl = CC(C)CC*; Sar = CNCC(=O)O
Assignment: determine reported Papp A→B at 180 min for the given compounds.
A complete answer gives the number followed by the unit.

compound | measurement.type | measured
CC(C)C[C@@H]1NC(=O)[C@H](Cc2ccccc2)N(C)C(=O)[C@@H](C(C)C)NC(=O)C[C@@H](C(=O)N2CCCCC2)NC(=O)[C@H](C)N(C)C(=O)[C@H](CC(C)C)N(C)C(=O)[C@H](CCc2ccccc2)NC(=O)[C@H](CC(C)C)N(C)C(=O)CN(C)C(=O)[C@H]([C@@H](C)O)NC(=O)[C@H](CC(C)C)N(C)C1=O [pd312] ([dV][NMeF]L[NMeL]T[Sar][NMeL][hPhe][NMeL][NMeA]D-Piperidide; lactam N-11) | Papp A→B at 180 min | 1.5 ×10⁻⁶ cm/s

So what's the measured Papp A→B at 180 min for this one? CC[C@H]1C(=O)N[C@@H]([C@@H](C)O)C(=O)N(C)CC(=O)N(C)[C@@H](COCCC(C)C)C(=O)N[C@@H](CC(C)C)C(=O)N(C)[C@@H](Cc2ccccc2)C(=O)N(C)[C@@H](CC(C)C)C(=O)N[C@H](C(=O)N2CCCCC2)CC(=O)N[C@H](C(C)C)C(=O)N(C)[C@@H](Cc2ccccc2)C(=O)N[C@@H](CC(C)C)C(=O)N1C [pd306] ([dV][NMeF]L[NMeAbu]T[Sar][NMeS](Isopentyl)L[NMeF][NMeL]D-Piperidide; lactam N-11) 1.2 ×10⁻⁶ cm/s

###

assay.details: Caco-2 membrane permeability, improved method as used in the following Examples (96-well, 20 to 24 h preincubation)
Format: in vitro ADME
stated.conditions: human, Caco-2, Caco-2
Starred links: 1 amine or outer side, 2 acyl side, 3 side chain; linkers in the order of their positions; H or OH if unused. Positions of bridges follow the written chain, without caps; N, C: chain ends. Non-standard residues stand in square brackets, D forms with d. Residues, ends and D or L forms follow the SMILES beside them. ξ: configuration not given here. *: point of attachment. NMeAbu(4-morpholino) = CN[C@@H](CCN1CCOCC1)C(=O)O; Glu(NHSO2Me) = CS(=O)(=O)NC(=O)CC[C@H](N)C(=O)O; 3Pal(6-NMe2) = CN(C)c1ccc(C[C@H](N)C(=O)O)cn1; X12 = CCCC[C@@H](O)[C@H](N[*:1])C(=O)[*:2]; X14 = O=C([C@H](CCc1ccccc1Cl)N[*:1])[*:2]; NMehPhe = CN[C@@H](CCc1ccccc1)C(=O)O; N(isopentyl)Gly = CC(C)CCNCC(=O)O; NMeF = CN[C@@H](Cc1ccccc1)C(=O)O; NMeL = CN[C@@H](CC(C)C)C(=O)O; NMeV = CN[C@H](C(=O)O)C(C)C; NMeAbu = CC[C@H](NC)C(=O)O; NMeA = CN[C@@H](C)C(=O)O; Piperidide = C1CCN(*)CC1; NBuGly = CCCCNCC(=O)O; Isopentyl = CC(C)CC*; X2 = Fc1cncc(C*)c1; ξS = NC(CO)C(=O)O; Sar = CNCC(=O)O; tBu = CC(C)(C)*
Returns one of class 1 or class 0; class 1 when Papp A→B at 180 min is >= 2 ×10⁻⁶ cm/s.

Solved entries:
compound | cat
CCCC[C@@H](O)[C@@H]1NC(=O)[C@H](CC(C)C)N(C)C(=O)[C@H](C)NC(=O)[C@H](Cc2ccccc2)N(C)C(=O)[C@@H](C(C)C)NC(=O)C[C@@H](C(=O)N2CCCCC2)NC(=O)[C@H](C)N(C)C(=O)[C@H](Cc2ccccc2)N(C)C(=O)[C@H](COC(C)(C)C)NC(=O)[C@H](CC(C)C)N(C)C(=O)CN(C)C1=O [pd467] ([dV][NMeF]A[NMeL][X12][Sar][NMeL]S(tBu)[NMeF][NMeA]D-Piperidide; lactam N-11) | class 0
CC(C)CCN1CC(=O)N(C)[C@@H](CC(C)C)C(=O)N[C@@H](COC(C)(C)C)C(=O)N(C)[C@@H](Cc2ccccc2)C(=O)N(C)[C@@H](C(C)C)C(=O)N[C@H](C(=O)N2CCCCC2)CC(=O)N[C@H](C)C(=O)N(C)[C@@H](CC(C)C)C(=O)N[C@@H](Cc2ccc(N(C)C)nc2)C(=O)N(C)[C@@H](CC(C)C)C(=O)N[C@@H]([C@@H](C)O)C1=O [pd396] ([dA][NMeL][3Pal(6-NMe2)][NMeL]T[N(isopentyl)Gly][NMeL]S(tBu)[NMeF][NMeV]D-Piperidide; lactam N-11) | class 0
CC(C)CCOCC1NC(=O)[C@H](CC(C)C)N(C)C(=O)[C@H](Cc2ccccc2)N(C)C(=O)CN(C)C(=O)[C@H]([C@@H](C)O)NC(=O)[C@H](CC(C)C)N(C)C(=O)[C@H](C(C)C)NC(=O)[C@H](Cc2ccccc2)N(C)C(=O)CN(C)C(=O)C[C@@H](C(=O)N2CCCCC2)NC(=O)[C@H](CC(C)C)N(C)C1=O (stereo partly drawn) [pd305] ([Sar][NMeF]V[NMeL]T[Sar][NMeF][NMeL][ξS](Isopentyl)[NMeL]D-Piperidide; lactam N-11) | class 1
CCCCN1CC(=O)N(C)[C@@H](CC(C)C)C(=O)N[C@@H](COC(C)(C)C)C(=O)N(C)[C@@H](Cc2ccccc2)C(=O)N(C)[C@@H](C(C)C)C(=O)N[C@H](C(=O)N2CCCCC2)CC(=O)N[C@H](CC(C)C)C(=O)N(C)[C@@H](Cc2ccccc2)C(=O)N[C@@H](CC(C)C)C(=O)N(C)[C@@H](CCN2CCOCC2)C(=O)N[C@@H]([C@@H](C)O)C1=O [pd452] ([dL][NMeF]L[NMeAbu(4-morpholino)]T[NBuGly][NMeL]S(tBu)[NMeF][NMeV]D-Piperidide; lactam N-11) | class 0

Is reported Papp A→B at 180 min greater than or equal to 2 ×10⁻⁶ cm/s here: CCCCN1CC(=O)N(C)[C@@H](Cc2ccccc2)C(=O)N[C@@H](CCC(=O)NS(C)(=O)=O)C(=O)N(C)[C@@H](CC(C)C)C(=O)N[C@@H]([C@@H](C)O)C(=O)N(CCCC)CC(=O)N(C)[C@@H](Cc2ccccc2)C(=O)N(C)[C@@H](CC(C)C)C(=O)N[C@@H](CC(C)C)C(=O)N(C)[C@@H](CC(C)C)C(=O)N[C@H](C(=O)N2CCCCC2)CC1=O [pd65] ([NBuGly][NMeF][Glu(NHSO2Me)][NMeL]T[NBuGly][NMeF][NMeL]L[NMeL]D-Piperidide; lactam N-11) class 0

Identify whether the reported Papp A→B at 180 min of the following compound is 2 ×10⁻⁶ cm/s or greater: CC(C)C[C@H]1C(=O)N[C@@H](COC(C)(C)C)C(=O)N(C)[C@@H](Cc2ccccc2)C(=O)N(C)[C@@H](C(C)C)C(=O)N[C@H](C(=O)N2CCCCC2)CC(=O)N[C@H](C(C)C)C(=O)N(C)[C@@H](Cc2ccccc2)C(=O)N[C@@H](COCc2cncc(F)c2)C(=O)N(C)[C@@H](CC(C)C)C(=O)N[C@@H]([C@@H](C)O)C(=O)N(C)CC(=O)N1C [pd346] ([dV][NMeF]S(X2)[NMeL]T[Sar][NMeL]S(tBu)[NMeF][NMeV]D-Piperidide; lactam N-11) class 1

Please check the record CC(C)C[C@H]1C(=O)N[C@H](C(=O)N2CCCCC2)CC(=O)N(C)[C@@H](C)C(=O)N[C@@H](CCc2ccccc2Cl)C(=O)N(C)[C@@H](CC(C)C)C(=O)N(C)[C@@H](CC(C)C)C(=O)N[C@@H](C)C(=O)N(C)[C@@H](Cc2ccccc2)C(=O)N(C)[C@@H](C(C)C)C(=O)N[C@@H]([C@@H](C)O)C(=O)N(C)CC(=O)N1C [pd353] ([NMeA][X14][NMeL][NMeL]A[NMeF][NMeV]T[Sar][NMeL]D-Piperidide; lactam N-11) and state if its Papp A→B at 180 min is at or above 2 ×10⁻⁶ cm/s. class 0

Please indicate if the recorded Papp A→B at 180 min for CC[C@H]1C(=O)N[C@@H]([C@@H](C)O)C(=O)N(C)CC(=O)N(C)[C@@H](CC(C)C)C(=O)N[C@@H](CC(C)C)C(=O)N(C)[C@@H](Cc2ccccc2)C(=O)N(C)[C@@H](CC(C)C)C(=O)N[C@H](C(=O)N2CCCCC2)CC(=O)N[C@H](C(C)C)C(=O)N(C)[C@@H](CCc2ccccc2)C(=O)N[C@@H](CC(C)C)C(=O)N1C [pd320] ([dV][NMehPhe]L[NMeAbu]T[Sar][NMeL]L[NMeF][NMeL]D-Piperidide; lactam N-11) meets or exceeds 2 ×10⁻⁶ cm/s. class 0
